# melting point annotations

Consider the following illustrative entries.
compound O=c1[nH]c(COc2ccccc2)nc2nccnc12 , melting point observed: 220 to 221 °C

compound CC(=O)NC(=Cc1c[nH]c2cc(Cl)ccc12)C(=O)O , melting point observed: 225 °C

compound Cc1nc(C(N)=O)n(-c2ccc(Cl)c(Cl)c2)c1Cl , melting point observed: 144 to 145 °C

compound CC#CCOc1ccc(S(=O)(=O)N(C)C(C(=O)NO)c2ccc(OCCCNC(=O)OCC)cc2)cc1 (stereo not given) , melting point observed: 60 to 62 °C

Next:
compound Nc1ccc(CCn2cccn2)cc1 , melting point observed: 73 to 74 °C

compound CC(C)(C)Oc1ccc(OC(=O)N2CCOCC2)cc1 , melting point observed: 129 to 130 °C

compound O=[N+]([O-])c1ccc(Oc2ccc(F)cc2F)cc1 , melting point observed: 58 to 62 °C

compound N#Cc1ccc(O)cn1 , melting point observed: 191 to 194 °C

compound C[Si](C)(C)C#CC1(OC(=O)c2ccccc2)C(COC(=O)c2ccc(Cl)cc2)OC(OC(=O)c2ccccc2)C1OC(=O)c1ccccc1 (stereo not given) , melting point observed: 63 to 66 °C

compound CNC(=O)C(=O)CCCCCCS(=O)(=O)c1ccc2ccccc2c1 , melting point observed: 108 to 109 °C
